Exercise: for every item that follows, state its recorded EC50.
System: SK-N-SH human neuroblastoma cells
Assay: Serum Deprivation/JC-1 Mitochondrial Membrane Potential (MMP) Assay
Assay type: cell-based
Conditions: Homo sapiens, SK-N-SH, 18 h, serum deprivation ~18 hours, JC-1 ratio normalized to peak value for 10 μM dimebolin, single curve fit to mean data of n=2-3
Source text: The method also involves a high-throughput assay using serum-deprivation conditions involving neuronal cells to screen for compounds that increase or preserve mitochondrial membrane potential. Such compounds can be found to aid in rescuing cells from energy-depletion that occurs in several neurodegenerative states. […]
Give bare numbers, in µM.

Solved cases (4 shown):
compound	EC50 (µM)
O=C(C1CC1)N1Cc2ccccc2N2CCN(Cc3ccccc3)CC2C1 (centres unmarked)	4.67
c1ccc(CN2CCN3c4ccccc4CN(Cc4ccncc4)CC3C2)cc1 (centres unmarked)	3.6
O=C(Cc1ccc(Cl)cc1)N1CCC2CN(Cc3ccccc3)CCN2c2ncccc21 (centres unmarked)	9.88
c1ccc(CN2CCN3c4ccccc4CN(Cc4ccc5ccccc5c4)CC3C2)cc1 (centres unmarked)	3.49

Next, consider the following compound.
Which EC50 reading was recorded for the compound COCCCNC(=O)N1Cc2ccccc2N2CCN(Cc3ccccc3)CC2C1 (centres unmarked) ?
0.765

----------
System: SK-N-SH human neuroblastoma cells
Assay: Serum Deprivation/JC-1 Mitochondrial Membrane Potential (MMP) Assay
Format: cell-based
Conditions: Homo sapiens, SK-N-SH, percent maximal intensity in JC-1 ratio normalized to peak value for 10 μM dimebolin, serum deprivation, read-out: JC-1 max %
valueKind: Emax (%)
Numbers only, in %.

molecule	Emax, %
c1ccc(CN2CCN3c4ccccc4N(Cc4ccccc4)CCC3C2)cc1 (stereo not drawn)	238

Here are 2 molecules. What values of Emax were reported for them?
1. O=C1CC2CN(Cc3ccccc3)CCN2c2ncccc2N1 (stereo not drawn)
2. O=C(Cc1ccccc1)N1Cc2ccccc2N2CCN(Cc3ccccc3)CC2C1 (stereo not drawn)

1: 68; 2: 263

Here are 5 molecules. What values of Emax were reported for them?
1. O=C(CC1CC1)N1Cc2ccccc2N2CCN(Cc3ccccc3)CC2C1 (stereo not drawn)
2. COc1ccc(CN2Cc3ccccc3N3CCN(Cc4ccccc4)CC3C2)cc1C (stereo not drawn)
3. CN1CCN2c3ccccc3CN(C(=O)N3CCOCC3)CC2C1 (stereo not drawn)
4. c1ccc(CN2CCN3c4ccccc4CN(Cc4ccccc4)CC3C2)cc1 (stereo not drawn)
5. c1ccc(CN2CCN3c4ccccc4CN(c4ncccn4)CC3C2)cc1 (stereo not drawn)

174
172
57
24
158

Which Emax reading was recorded for the molecule Cc1cccc(CN2Cc3ccccc3N3CCN(Cc4ccccc4)CC3C2)c1 (stereo not drawn) ?
151

----------
Tested on: SK-N-SH human neuroblastoma cells
Assay: Serum Deprivation/JC-1 Mitochondrial Membrane Potential (MMP) Assay
Type: cell-based
Details: Homo sapiens, SK-N-SH, percent maximal intensity in JC-1 ratio normalized to peak value for 10 μM dimebolin, serum deprivation, read-out: JC-1 max %
Decision: Emax compared against 200%; not below it gives class 1, below it gives class 0.

molecule	qualitativeLabel
Clc1ccc(CCN2Cc3ccccc3N3CCN(Cc4ccccc4)CC3C2)cn1 (stereo not drawn)	class 0
O=C(N1CCOCC1)N1Cc2ccccc2N2CCNCC2C1 (stereo not drawn)	class 0
O=C1C2CN(Cc3ccc(F)cc3)CCN2c2ccccc2CN1Cc1ccc(Br)cc1 (stereo not drawn)	class 1

Does the reported Emax for Fc1ccc(CN2CCN3c4ncccc4N(CC4CCC4)CCC3C2)cc1 (stereo not drawn) fall at or above the 200% mark?
class 0

Does the reported Emax for O=C(NCCc1ccncc1)N1Cc2ccccc2N2CCN(Cc3ccccc3)CC2C1 (stereo not drawn) fall at or above the 200% mark?
class 1

Does the reported Emax for Fc1ccc(CN2CCN3c4ccccc4CN(Cc4ccc(Br)cc4)C[C@H]3C2)cc1 (single isomer, unassigned) fall at or above the 200% mark?
class 1

Does the reported Emax for O=C(N1CCOCC1)N1Cc2ccccc2N2CCN(Cc3ccc(F)cc3)CC2C1 (stereo not drawn) fall at or above the 200% mark?
class 0

Does the reported Emax for CN1CCC2CN(Cc3ccccc3)CCN2c2ncccc21 (stereo not drawn) fall at or above the 200% mark?
class 0

----------
Exercise: for every item that follows, state its recorded JC-1 max %.
Test system: SK-N-SH human neuroblastoma cells
Test: Serum Deprivation/JC-1 Mitochondrial Membrane Potential (MMP) Assay
Assay type: cell-based
Details: percent maximal intensity in JC-1 ratio normalized to peak value for 10 μM dimebolin, serum deprivation
Answers are plain numbers, in %.

Solved cases (4 shown):
compound	assaySystem	JC-1 max % (%)
c1ccc(CN2CCN3c4ccccc4C[N+](Cc4ccccc4)(Cc4ccccc4)CC3C2)cc1 (centres unmarked)	SK-N-SH human neuroblastoma cells	148
Brc1ccc(CN2Cc3ccccc3N3CCN(Cc4ccccc4)CC3C2)cc1 (single isomer, unassigned; (+)) [Example 19]	SK-N-SH human neuroblastoma cells	169
Brc1ccc(CN2Cc3ccccc3N3CCN(Cc4ccccc4)CC3C2)cc1 (single isomer, unassigned; (-)) [Example 18]	SK-N-SH human neuroblastoma cells	178
Brc1ccc(CN2Cc3ccccc3N3CCN(Cc4ccccc4)CC3C2)cc1 (centres unmarked) [Example 3]	SK-N-SH human neuroblastoma cells	226

Next, consider the following compound.
Find JC-1 max % (SK-N-SH human neuroblastoma cells) for the entry Brc1ccc(CN2Cc3ccccc3N3CCN(Cc4ccccc4)CC3C2)cc1 (centres unmarked) [Example 123]
186

----------
Tested on: SK-N-SH human neuroblastoma cells
Test: Serum Deprivation/JC-1 Mitochondrial Membrane Potential (MMP) Assay
Type: cell-based
Conditions: Homo sapiens, SK-N-SH, 18 h, serum deprivation ~18 hours, JC-1 ratio normalized to peak value for 10 μM dimebolin, single curve fit to mean data of n=2-3
valueKind: pEC50
Give bare numbers, as −log10 of the molar value.

Solved cases (5 shown):
compound	assaySystem	pEC50
O=C(Cn1ncccc1=O)N1CCC2CN(Cc3ccccc3)CCN2c2ccccc21 (centres unmarked)	SK-N-SH human neuroblastoma cells	5.07
Brc1cccc(CN2Cc3ccccc3N3CCN(Cc4ccccc4)CC3C2)c1 (centres unmarked)	SK-N-SH human neuroblastoma cells	5.66
N#Cc1ccc(CN2Cc3ccccc3N3CCN(Cc4ccccc4)CC3C2)cc1 (centres unmarked)	SK-N-SH human neuroblastoma cells	5.37
CC1(C(=O)N2Cc3ccccc3N3CCN(Cc4ccccc4)CC3C2)CC1 (centres unmarked)	SK-N-SH human neuroblastoma cells	5.36
c1ccc(CN2CCN3c4ccccc4CN(CC4CCCCC4)CC3C2)cc1 (centres unmarked)	SK-N-SH human neuroblastoma cells	5.44

Here are 4 compounds. What values of pEC50 were reported for them?
1. CCOc1ccc(CN2Cc3ccccc3N3CCN(Cc4ccccc4)CC3C2)cc1 (centres unmarked)
2. Clc1ccc(CCN2CCC3CN(Cc4ccccc4)CCN3c3ncccc32)cc1 (centres unmarked)
3. c1ccc(CN2CCN3c4ccccc4CN(CC4CCCC4)CC3C2)cc1 (centres unmarked)
4. CC(C)(C)OC(=O)N1CCN2c3ccccc3CN(Cc3ccc(Br)cc3)C(=O)C2C1 (centres unmarked)

5.38
5.44
5.37
5.30

----------
System: SK-N-SH human neuroblastoma cells
Experiment: Serum Deprivation/JC-1 Mitochondrial Membrane Potential (MMP) Assay
Type: cell-based
Details: Homo sapiens, SK-N-SH, 18 h, serum deprivation ~18 hours, JC-1 ratio normalized to peak value for 10 μM dimebolin, single curve fit to mean data of n=2-3
valueKind: pEC50
One number for each entry, as −log10 of the molar value.

Solved cases (6 shown):
molecule	assaySystem	pEC50
O=C(c1ccc(F)cc1)N1Cc2ccccc2N2CCN(Cc3ccccc3)CC2C1 (stereo not shown)	SK-N-SH human neuroblastoma cells	5.56
CC1(C)C(CN2CCC3CN(Cc4ccccc4)CCN3c3ncccc32)C1(C)C (stereo not shown)	SK-N-SH human neuroblastoma cells	5.47
c1ccc(CN2CCN3c4ccccc4CN(c4ccccn4)CC3C2)cc1 (stereo not shown)	SK-N-SH human neuroblastoma cells	5.44
COc1ccc(CN2Cc3ccccc3N3CCN(Cc4ccccc4)CC3C2)cc1C (stereo not shown)	SK-N-SH human neuroblastoma cells	5.40
Cc1cc(C(=O)N2Cc3ccccc3N3CCN(Cc4ccccc4)CC3C2)c(C)[nH]1 (stereo not shown)	SK-N-SH human neuroblastoma cells	6.07
CN1CCN2c3ccccc3CN(C(=O)N3CCOCC3)CC2C1 (stereo not shown)	SK-N-SH human neuroblastoma cells	4.99

Here are 5 molecules. What values of pEC50 were reported for them?
1. Brc1ccc(CN2Cc3ccccc3N3CCN(Cc4ccccc4)CC3C2)cn1 (stereo not shown)
2. CN1Cc2ccccc2N2CCN(Cc3ccccc3)CC2C1 (stereo not shown)
3. Clc1ccc(CCN2CCC3CN(Cc4ccccc4)CCN3c3ccccc32)cc1 (stereo not shown)
4. Clc1ccc(CN2Cc3ccccc3N3CCN(Cc4ccccc4)CC3C2)cn1 (stereo not shown)
5. Clc1ccc(CN2Cc3ccccc3N3CCN(Cc4ccccc4)CC3C2)cc1 (stereo not shown)

1: 5.43; 2: 5.52; 3: 5.52; 4: 5.53; 5: 5.40

Here are 7 molecules. What values of pEC50 were reported for them?
1. O=C(C1CCC1)N1Cc2ccccc2N2CCN(Cc3ccccc3)CC2C1 (stereo not shown)
2. O=C(N1CCOCC1)N1Cc2ccccc2N2CCN(c3ccc(Cl)cc3)CC2C1 (stereo not shown)
3. COc1cccc(CN2Cc3ccccc3N3CCN(Cc4ccccc4)CC3C2)c1 (stereo not shown)
4. CCN(CC)C(=O)N1Cc2ccccc2N2CCN(Cc3ccccc3)CC2C1 (stereo not shown)
5. CCCC(=O)N1Cc2ccccc2N2CCN(Cc3ccccc3)CC2C1 (stereo not shown)
6. O=C(c1ccccc1)N1Cc2ccccc2N2CCN(Cc3ccccc3)CC2C1 (stereo not shown)
7. c1ccc(CN2CCN3c4ccccc4CNCC3C2)cc1 (stereo not shown)

5.90
5.29
5.38
5.99
5.51
5.17
5.46

Which pEC50 reading was recorded for the molecule O=C(Cc1ccc(Cl)nc1)N1Cc2ccccc2N2CCN(Cc3ccccc3)CC2C1 (stereo not shown) ?
5.38
